- Tested on: 379773-124-R-J2-PDC spheroid viability
- TEST: Anticancer human tumor 379773-124-R-J2-PDC patient-derived endometrial carcinoma cell line growth inhibition [POLQ]
- PARTICULARS: second compound 1 µM; first compound 3.16 µM; hits give low values; spheroids with HUVEC and MSC
Just a reminder that ties go to NOT MET: only viability, T/C strictly below 70% counts as MET.

molecule="CCc1cc2c(N3CCc4c(cc(Cn5ccnc5)cc4-c4cn(C)nc4C(F)(F)F)C3=O)cc(C)nc2c(OC)n1 + COC1C(OC(N)=O)C(O)C(Oc2ccc3c(O)c(NC(=O)c4ccc(O)c(CC=C(C)C)c4)c(=O)oc3c2C)OC1(C)C" cat=MET
molecule="CCCS(=O)(=O)Nc1ccc(F)c(C(=O)c2c[nH]c3ncc(-c4ccc(Cl)cc4)cc23)c1F + Nc1ccc(C#CCN(C(=O)Cc2ncc(C(F)(F)F)cc2C(F)(F)F)c2ccc(F)cc2)nn1" cat="NOT MET"
molecule="O=C(Nc1ccc(O)c(NS(=O)(=O)c2ccc(F)cc2)c1)c1ccc(-c2ccccc2)cc1 + COC1C(OC(N)=O)C(O)C(Oc2ccc3c(O)c(NC(=O)c4ccc(O)c(CC=C(C)C)c4)c(=O)oc3c2C)OC1(C)C" cat="NOT MET"
molecule="CNCc1ccc(-c2[nH]c3cc(F)cc4c3c2CCNC4=O)cc1 + Nc1ccc(C#CCN(C(=O)Cc2ncc(C(F)(F)F)cc2C(F)(F)F)c2ccc(F)cc2)nn1" cat="NOT MET"
molecule="COc1ccc([C@@H](O)c2cc(-c3ncnc4cc(N5CCOCC5)ccc34)c(F)cc2Cl)nn1 + COC1C(OC(N)=O)C(O)C(Oc2ccc3c(O)c(NC(=O)c4ccc(O)c(CC=C(C)C)c4)c(=O)oc3c2C)OC1(C)C" cat="NOT MET"
molecule="CC1COCCN1c1cc(C2(S(C)(=N)=O)CC2)nc(-c2ccnc3[nH]ccc23)n1 (stereo not given) + COC1C(OC(N)=O)C(O)C(Oc2ccc3c(O)c(NC(=O)c4ccc(O)c(CC=C(C)C)c4)c(=O)oc3c2C)OC1(C)C" cat=MET
molecule="CNCc1ccc(-c2[nH]c3cc(F)cc4c3c2CCNC4=O)cc1 + Cc1cccc(N(C)C(=O)C2C(O)CCN2c2nc(C)cc(C(F)(F)F)c2C#N)c1" cat="NOT MET"
molecule="C#Cc1c(F)ccc2cc(O)cc(-c3ncc4c(N5CC6CCC(C5)N6)nc(OCC56CCCN5CC(F)C6)nc4c3F)c12 (stereo not given) + Cc1cccc(N(C)C(=O)C2C(O)CCN2c2nc(C)cc(C(F)(F)F)c2C#N)c1" cat="NOT MET"

* * *

- Tested on: 379773-124-R-J2-PDC spheroid viability
- TEST: Anticancer human tumor 379773-124-R-J2-PDC cell line growth inhibition [POLQ]; active = viability on the fitted dose curve at most 10% of control; inactive = the rest;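 note: spheroids exposed to drugs for seven days before readout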
- PARTICULARS: second compound 0.1 µM; first compound 3.16 µM; spheroids with HUVEC and MSC
Labels: t (active), f (inactive)

molecule="O=C(c1cc(Cc2n[nH]c(=O)c3ccccc23)ccc1F)N1CCN(C(=O)C2CC2)CC1 + Cc1cccc(N(C)C(=O)C2C(O)CCN2c2nc(C)cc(C(F)(F)F)c2C#N)c1" assayed_system="379773-124-R-J2-PDC spheroid viability" cat=f
molecule="O=c1[nH]cc(F)c(=O)[nH]1 + Nc1ccc(C#CCN(C(=O)Cc2ncc(C(F)(F)F)cc2C(F)(F)F)c2ccc(F)cc2)nn1" assayed_system="379773-124-R-J2-PDC spheroid viability" cat=f
molecule="COc1cc(C2c3cc4c(cc3C(OC3OC5COC(C)OC5C(O)C3O)C3COC(=O)C23)OCO4)cc(OC)c1O (stereo unspecified) + COC1C(OC(N)=O)C(O)C(Oc2ccc3c(O)c(NC(=O)c4ccc(O)c(CC=C(C)C)c4)c(=O)oc3c2C)OC1(C)C" assayed_system="379773-124-R-J2-PDC spheroid viability" cat=f
molecule="C=CC(=O)N1CCN(c2nc(=O)n(-c3c(C)ccnc3C(C)C)c3nc(-c4c(O)cccc4F)c(F)cc23)C(C)C1 (stereo unspecified) + Cc1cccc(N(C)C(=O)C2C(O)CCN2c2nc(C)cc(C(F)(F)F)c2C#N)c1" assayed_system="379773-124-R-J2-PDC spheroid viability" cat=f
molecule="CC1COCCN1c1cc(C2(O)CC3CCC(C2)O3)c2cnn(-c3ccn[nH]3)c2n1 (stereo unspecified) + COC1C(OC(N)=O)C(O)C(Oc2ccc3c(O)c(NC(=O)c4ccc(O)c(CC=C(C)C)c4)c(=O)oc3c2C)OC1(C)C" assayed_system="379773-124-R-J2-PDC spheroid viability" cat=t
molecule="COc1cc2cc(C(=O)CCC(=O)O)sc2cc1OC + Nc1ccc(C#CCN(C(=O)Cc2ncc(C(F)(F)F)cc2C(F)(F)F)c2ccc(F)cc2)nn1" assayed_system="379773-124-R-J2-PDC spheroid viability" cat=f
molecule="C#Cc1c(F)ccc2cc(O)cc(-c3ncc4c(N5CC6CCC(C5)N6)nc(OCC56CCCN5CC(F)C6)nc4c3F)c12 (stereo unspecified) + COC1C(OC(N)=O)C(O)C(Oc2ccc3c(O)c(NC(=O)c4ccc(O)c(CC=C(C)C)c4)c(=O)oc3c2C)OC1(C)C" assayed_system="379773-124-R-J2-PDC spheroid viability" cat=f
molecule="CCCS(=O)(=O)Nc1ccc(F)c(C(=O)c2c[nH]c3ncc(-c4ccc(Cl)cc4)cc23)c1F + COC1C(OC(N)=O)C(O)C(Oc2ccc3c(O)c(NC(=O)c4ccc(O)c(CC=C(C)C)c4)c(=O)oc3c2C)OC1(C)C" assayed_system="379773-124-R-J2-PDC spheroid viability" cat=f
molecule="CCc1cc2c(N3CCc4c(cc(Cn5ccnc5)cc4-c4cn(C)nc4C(F)(F)F)C3=O)ccnc2c(OC)n1 + Nc1ccc(C#CCN(C(=O)Cc2ncc(C(F)(F)F)cc2C(F)(F)F)c2ccc(F)cc2)nn1" assayed_system="379773-124-R-J2-PDC spheroid viability" cat=f
molecule="CC1COCCN1c1cc(-c2ccnn2C)c2ccnc(-c3ccn[nH]3)c2n1 (stereo unspecified) + COC1C(OC(N)=O)C(O)C(Oc2ccc3c(O)c(NC(=O)c4ccc(O)c(CC=C(C)C)c4)c(=O)oc3c2C)OC1(C)C" assayed_system="379773-124-R-J2-PDC spheroid viability" cat=t
molecule="CCc1cc2c(N3CCc4c(cc(Cn5ccnc5)cc4-c4cn(C)nc4C(F)(F)F)C3=O)cc(C)nc2c(OC)n1 + Cc1cccc(N(C)C(=O)C2C(O)CCN2c2nc(C)cc(C(F)(F)F)c2C#N)c1" assayed_system="379773-124-R-J2-PDC spheroid viability" cat=f
molecule="CC1COCCN1c1cc(-c2ccnn2C)c2ccnc(-c3ccn[nH]3)c2n1 (stereo unspecified) + Nc1ccc(C#CCN(C(=O)Cc2ncc(C(F)(F)F)cc2C(F)(F)F)c2ccc(F)cc2)nn1" assayed_system="379773-124-R-J2-PDC spheroid viability" cat=f
molecule="CNCc1ccc(-c2[nH]c3cc(F)cc4c3c2CCNC4=O)cc1 + COC1C(OC(N)=O)C(O)C(Oc2ccc3c(O)c(NC(=O)c4ccc(O)c(CC=C(C)C)c4)c(=O)oc3c2C)OC1(C)C" assayed_system="379773-124-R-J2-PDC spheroid viability" cat=f
molecule="CC1COCCN1c1cc(C2(S(C)(=N)=O)CC2)nc(-c2ccnc3[nH]ccc23)n1 (stereo unspecified) + Nc1ccc(C#CCN(C(=O)Cc2ncc(C(F)(F)F)cc2C(F)(F)F)c2ccc(F)cc2)nn1" assayed_system="379773-124-R-J2-PDC spheroid viability" cat=f
molecule="O=c1[nH]cc(F)c(=O)[nH]1 + COC1C(OC(N)=O)C(O)C(Oc2ccc3c(O)c(NC(=O)c4ccc(O)c(CC=C(C)C)c4)c(=O)oc3c2C)OC1(C)C" assayed_system="379773-124-R-J2-PDC spheroid viability" cat=f
molecule="O=C(c1cc(Cc2n[nH]c(=O)c3ccccc23)ccc1F)N1CCN(C(=O)C2CC2)CC1 + COC1C(OC(N)=O)C(O)C(Oc2ccc3c(O)c(NC(=O)c4ccc(O)c(CC=C(C)C)c4)c(=O)oc3c2C)OC1(C)C" assayed_system="379773-124-R-J2-PDC spheroid viability" cat=f
molecule="CC(C)n1c(=O)n(C)c2cnc3cc(F)c(-c4ccc(OCCCN5CCCCC5)nc4)cc3c21 + Cc1cccc(N(C)C(=O)C2C(O)CCN2c2nc(C)cc(C(F)(F)F)c2C#N)c1" assayed_system="379773-124-R-J2-PDC spheroid viability" cat=f
molecule="CC1COCCN1c1cc(C2(O)CC3CCC(C2)O3)c2cnn(-c3ccn[nH]3)c2n1 (stereo unspecified) + Cc1cccc(N(C)C(=O)C2C(O)CCN2c2nc(C)cc(C(F)(F)F)c2C#N)c1" assayed_system="379773-124-R-J2-PDC spheroid viability" cat=t
molecule="CC1COCCN1c1cc(C2(S(C)(=N)=O)CC2)nc(-c2ccnc3[nH]ccc23)n1 (stereo unspecified) + Cc1cccc(N(C)C(=O)C2C(O)CCN2c2nc(C)cc(C(F)(F)F)c2C#N)c1" assayed_system="379773-124-R-J2-PDC spheroid viability" cat=f
molecule="CC1COCCN1c1cc(C2(S(C)(=N)=O)CC2)nc(-c2ccnc3[nH]ccc23)n1 (stereo unspecified) + COC1C(OC(N)=O)C(O)C(Oc2ccc3c(O)c(NC(=O)c4ccc(O)c(CC=C(C)C)c4)c(=O)oc3c2C)OC1(C)C" assayed_system="379773-124-R-J2-PDC spheroid viability" cat=f
molecule="CNCc1ccc(-c2[nH]c3cc(F)cc4c3c2CCNC4=O)cc1 + Nc1ccc(C#CCN(C(=O)Cc2ncc(C(F)(F)F)cc2C(F)(F)F)c2ccc(F)cc2)nn1" assayed_system="379773-124-R-J2-PDC spheroid viability" cat=f

These data points were gathered from PubChem BioAssay AID1963848.
